// reported binding signal per item
- Target: SIX1-Q177R homeodomain (human, UniProt Q15475 108-198, Q177R)
- Sequence: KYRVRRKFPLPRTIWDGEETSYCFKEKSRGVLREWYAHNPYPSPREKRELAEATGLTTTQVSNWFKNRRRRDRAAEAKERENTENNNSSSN
- Method: universal protein binding microarray; Universal all-10-mer PBM (8x60K, AMADID 030236), 300 nM GST-tagged protein, Alexa Fluor 488 anti-GST; buffer, salt, pH and temperature not stated (as in Berger); high values mean tight binding
- Condition Details: protein: ivt; tags: N-terminal GST; dsDNA, one strand shown
In all, about 33,000 sequences were measured (“e-score”: median about -0.05, highest 2% from about 0.38 on). Only a selection was taken, and the highest values are over-represented in it overall.

Sequence Data: AGAAACGG
Target: SIX1-Q177R homeodomain (human, UniProt Q15475 108-198, Q177R)
binding signal [E-score]: 0.152

Sequence Data: GAACACCC
Target: SIX1-Q177R homeodomain (human, UniProt Q15475 108-198, Q177R)
binding signal [E-score]: 0.471

Sequence Data: AGGGGGAT
Target: SIX1-Q177R homeodomain (human, UniProt Q15475 108-198, Q177R)
binding signal [E-score]: 0.23

Sequence Data: TGCGTACA
Target: SIX1-Q177R homeodomain (human, UniProt Q15475 108-198, Q177R)
binding signal [E-score]: 0.18

Sequence Data: CCGGGTAC
Target: SIX1-Q177R homeodomain (human, UniProt Q15475 108-198, Q177R)
binding signal [E-score]: 0.294

Sequence Data: GAACACTC
Target: SIX1-Q177R homeodomain (human, UniProt Q15475 108-198, Q177R)
binding signal [E-score]: 0.374

Sequence Data: ACCCTAGT
Target: SIX1-Q177R homeodomain (human, UniProt Q15475 108-198, Q177R)
binding signal [E-score]: 0.269

Sequence Data: AGGGTAAC
Target: SIX1-Q177R homeodomain (human, UniProt Q15475 108-198, Q177R)
binding signal [E-score]: 0.176

Sequence Data: ACTATGTG
Target: SIX1-Q177R homeodomain (human, UniProt Q15475 108-198, Q177R)
binding signal [E-score]: 0.17

Sequence Data: CCGCAAGG
Target: SIX1-Q177R homeodomain (human, UniProt Q15475 108-198, Q177R)
binding signal [E-score]: 0.15

Sequence Data: CGGACGAC
Target: SIX1-Q177R homeodomain (human, UniProt Q15475 108-198, Q177R)
binding signal [E-score]: 0.152
